Type: in vivo, healthy adults (human)
Conditions: human, plasma, oral

| SMILES ENTRY | Cmax (ng/mL) |
| --- | --- |
| CN(C)c1cc(CNCC(C)(C)C)c(O)c2c1C[C@H]1C[C@H]3[C@H](N(C)C)C(O)=C(C(N)=O)C(=O)[C@@]3(O)C(O)=C1C2=O | 607 |

* * *

Type: in vivo, healthy adults (human)
Conditions: human, plasma, oral, 300 mg
PROPERTY LABEL: AUC(0-inf)

| COMPOUND | PROPERTY LABEL | OBSERVED |
| --- | --- | --- |
| CN(C)c1cc(CNCC(C)(C)C)c(O)c2c1C[C@H]1C[C@H]3[C@H](N(C)C)C(O)=C(C(N)=O)C(=O)[C@@]3(O)C(O)=C1C2=O [Omadacycline] | AUC(0-inf) | 8690 ng·h/mL |
